tested on: CP265; test: qHTS profiling for inhibitors of Plasmodium falciparum proliferation (AID 504749); also: nearly all actives have a fitted effect of over 60% in size; conditions: P. falciparum in erythrocytes, SYBR Green DNA, 72 h; series mostly up to 28.7 µM
Records with an inconclusive call do not appear. The source made the active and inactive calls. Calls follow the shape of the dose curve; as a rule, active = well fitted inhibition curve with a large enough effect; inconclusive = small, poorly fitted or top-dose-only effect; inactive = flat fitted curve, though single readings scatter.
Classes used: active, inactive

CC(C)(C)NC[C@H](O)CSc1nc(-c2ccc(C(N)=O)s2)cs1: inactive
COc1cc(/C=C2\CCC/C(=C\c3ccc(O)c(OC)c3)C2=O)ccc1O: active
CCCCC(=O)OC1CCC2C3CCc4cc(O)ccc4C3CC[C@]12C (stereo partly specified): inactive
C=C1NC(=O)c2cc(CN(C)c3ccc(C(=O)N[C@@H](CCC(=O)O)C(=O)O)s3)ccc2N1: inactive
CC1=C(c2ccc(NN=C(C#N)C#N)cc2)NNC(=O)C1: inactive
CC(=O)N1CC(O)CC1C(=O)O (stereo unspecified): inactive
CC(=O)NC1[C@H](O)C[C@@](O)(C(=O)O)O[C@H]1[C@H](O)[C@H](O)CO (stereo partly specified): inactive
CC(CCC(=O)O)C1CCC2C3C(=O)C[C@@H]4CC(=O)CC[C@@]4(C)C3CC(=O)[C@]12C (stereo partly specified): inactive
COc1ccc(S(=O)(=O)N2c3ccc(Cl)cc3[C@](O)(c3ccccc3Cl)[C@@H]2C(=O)N2CCC[C@H]2C(N)=O)cc1OC: inactive
CO/N=C(/C(=O)N[C@@H]1C(=O)N2C(C(=O)O)=C(CSC(=O)c3ccco3)CSC12)c1csc(N)n1 (stereo partly specified): inactive
COc1ccc(C(=O)/C(Br)=C/C(=O)O)cc1: inactive

Reference source: PubChem BioAssay (NCATS)
